Source listed as the nanobody polyreactivity screen of Harvey et al. (2022).

assay: yeast display, Sf9 membrane polyspecificity reagent, FACS + sequencing; frameworks hold sequencing errors
value-type: polyreactivity (PSR sort gate)

QVQLVESGGGLVQAGGSLRLSCAASGRTFSYYAMGWYREAPGNERELVAAITTGGRTYYADSVKGRFTISRDNAKNTVYLQMNSLKPEDTAVYYCAADYTVSYPYYEYYYWGQGTQVTVSS : high polyreactivity
QLQLVESGGGLVQAGGSLRFSCAASGFTFVWYVRGWYRQAPVKARELVASSTSTGSTNYADSVKGRYTISRDNAKNTVYLQMNSLKPEDTAVYYCNARGSYKRTRYGKWGQGTQVTVSS : high polyreactivity

---

experiment: yeast display, Sf9 membrane polyspecificity reagent, FACS + sequencing; frameworks hold sequencing errors
value-type: polyreactivity (PSR sort gate)

Look over these answered cases.
QVQLVESGGGLVQAGGSLRLSCAASGSIFPLYDMGWYRLAPGKERELVAGITGSGGSTYYADSVKGRFTISRDNAKNTVYLQMNSLKPEDTAVYYCAADYSLYGWWFRNDYWGQGTQVTVSS : low polyreactivity
QVQLVESGGGLVQAGGSLRLSCAASGSTFGVYAMGWYREAPGKERELVAAINKSGTRTYYADSVKGRFTISRDNAKNTVYLQMNSLKPEDTAVYYCAADQGTYGYGGFYYWGQGTQVTVSS : high polyreactivity
QVQLVESGGGLVQAGGSLRLSCAASGYIFEEYDMGWYRQAPGKERELVAAISASGGSTYYADSVKGRFTISRDNAKNTVYLQMNSLKPEDTAVYYCAADAVREVYGSWDDYWGQGTQVTVSS : low polyreactivity
QVQRVESGGGLVQAGGSLRLSCAASGRIFRYNAMGWYRQAPGKERELVAAISGTADRTYYADSVKGRFTNSRDNAKNTVYLQMNSLKPEDTAVYYCAVAYSYRYYYWGQGTQVTVSS : high polyreactivity

Please find the next sequence below.
Lookup: Give the reported value of polyreactivity (PSR sort gate) for this record: QVQHVESGGGIVQAGGSLRLSCAASGITFYGNTMGWYRPARGKERELVARISSGGSTNYADSVKGRFTISREKAKNSGYLQMNSLKPEDTAVYYCAVKQYWYIWSGYGYDYWGQGTQVTVSS
Found: high polyreactivity
